Molecular target: Luciferin 4-monooxygenase (Photinus pyralis) (UniProt P08659)
Sequence (P08659 whole entry, looked up): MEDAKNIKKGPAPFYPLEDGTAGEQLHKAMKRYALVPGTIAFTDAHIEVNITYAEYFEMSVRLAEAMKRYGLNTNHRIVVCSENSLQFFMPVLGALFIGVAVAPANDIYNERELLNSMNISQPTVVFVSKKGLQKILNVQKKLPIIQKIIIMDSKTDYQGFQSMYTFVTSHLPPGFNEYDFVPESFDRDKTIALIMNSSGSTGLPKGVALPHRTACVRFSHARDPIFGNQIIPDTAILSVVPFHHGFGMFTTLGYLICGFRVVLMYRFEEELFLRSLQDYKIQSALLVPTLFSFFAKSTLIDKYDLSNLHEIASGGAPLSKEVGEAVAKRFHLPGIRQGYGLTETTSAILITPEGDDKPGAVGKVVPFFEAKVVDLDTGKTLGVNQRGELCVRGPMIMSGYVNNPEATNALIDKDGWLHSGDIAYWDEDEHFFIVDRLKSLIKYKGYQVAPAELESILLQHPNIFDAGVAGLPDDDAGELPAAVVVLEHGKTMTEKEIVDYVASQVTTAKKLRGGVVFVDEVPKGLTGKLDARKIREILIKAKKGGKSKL
Test: FLuc inhibitory activity for the follow-up compounds in a biochemical assay with Km concentrations of substrate and 500microM CoASH
Details: purified FLuc, Km substrates + 500 uM CoASH, luminescence; series mostly up to 57.5 µM
Inconclusive results are not listed. Calls of active or inactive are those of the source. Calls follow the shape of the dose curve; as a rule, active = well fitted inhibition curve with a large enough effect; inconclusive = small, poorly fitted or top-dose-only effect; inactive = flat fitted curve, though single readings scatter.
Write down one outcome, taken from TRUE for active, FALSE for inactive

Reference set, count: 6
INSERT INTO results (compound_smiles, assigned_category) VALUES
  ('COc1ccc2nc(NC(=O)CCc3ccc(OC)c(OC)c3)sc2c1', 'FALSE'),
  ('O=C(O)c1cccc(NC(=O)c2cccc(S(=O)(=O)Nc3cccc(F)c3)c2)c1', 'FALSE'),
  ('NC(=O)Cc1ccc2sc(-c3ccccc3)nc2c1', 'TRUE'),
  ('O=C(Cc1ccccc1)Nc1ccc(C(=O)Nc2ccccc2C(=O)O)cc1', 'TRUE'),
  ('Nc1ccc(-c2nc3ccc(N)cc3s2)cc1', 'TRUE'),
  ('Cc1ccc(C(=O)Nc2cccc(C(=O)O)c2)cc1S(=O)(=O)N1CCCC1', 'TRUE');

Lookup: What outcome does the record of this test show for O=C(O)c1cccc(NC(=O)c2ccc(COc3ccc(Cl)cc3)cc2)c1 ?
Found: TRUE

Origin of measurements: PubChem BioAssay AID602358
